observable: pKd
Here pKd is given on a logarithmic scale as minus log10 of the concentration in mol/L.

With Cyclin-dependent kinase 2 (Homo sapiens) as the test system, NNc1ncnc2sc3c(c12)CCCCC3 showed pKd of 4.49

With Cyclin-dependent kinase 2 (Homo sapiens) as the test system, NNc1ncnc2sc3c(c12)CCCC3 showed pKd of 4.55

With Cyclin-dependent kinase 2 (Homo sapiens) as the test system, NNc1ncnc2sc3c(c12)CCC3 showed pKd of 3.54

With Cyclin-dependent kinase 2 (Homo sapiens) as the test system, CC(=O)OCc1cc(O)c2c(c1)C(=O)c1cccc(O)c1C2=O showed pKd of 4.75
